# Tested on: SR leukemia
# experiment: NCI-60 one-dose screen, 48 h
# assayContext: 10 µM unless noted
Compounds without any hit were thinned out: in the full panel of roughly 83,000, 20% have a hit. Activity calls are given as the source filed them. The calls were made as follows: active = growth percent below 10; inactive = the rest.
Hello, when you answer, please use one of the following outcomes: active, inactive

{"columns": ["molecule", "className"],
 "data": [
  ["C=CN(C(=O)N1CCN(c2cc3c(cc2F)c(=O)c(C(=O)O)cn3C2CC2)CC1)c1nc(-c2ccc(Cl)cc2)cs1", "inactive"],
  ["CCOC(=O)NC(=S)n1oc(=O)c2ccccc21", "inactive"],
  ["COC(=O)[C@@]1(C)CC[C@]2(C)CC[C@]3(C)C4=CC=C5C(=CC(=O)C(O)=C5C)[C@]4(C)[C@@H](O)C[C@@]3(C)[C@@H]2C1", "active"],
  ["COCCOC(C)C(/C=N/NC(N)=S)=N/NC(N)=S (stereo not given)", "inactive"]
]}

Then there is this molecule:
# lookup: test call for O=C1/C(=C/c2cccc(Br)c2)COc2ccc(O)cc21 active

---

# Test system: COLO 205 colon
# experiment: NCI-60 one-dose screen, 48 h
# assayContext: 10 µM unless noted
This is part of a sample that, as a whole, favours compounds with a hit. Of some 83,000 tested, about 20% had one in any assay. The source made the active and inactive calls. How the source made its calls: active means growth percent below 10; inactive means the rest.
Pick one and only one: active, inactive

Field: example entries. Status: answers known.
{"columns": ["compound", "className"],
 "data": [
  ["CC(=O)c1ccc(-n2cc(CN3CCN(c4cc5c(cc4F)c(=O)c(C(=O)O)cn5C4CC4)CC3)nn2)cc1", "inactive"],
  ["Clc1ccc2nn3c4ccccc4c(OCCN4CCOCC4)nc3c2c1", "inactive"],
  ["N#CSc1c[nH]c2ccc(/C=C/C(=O)/C=C(O)/C=C/c3ccc4[nH]cc(SC#N)c4c3)cc12", "active"],
  ["CC(C)(C)OC(=O)CN1CCc2c(sc3ncnc(N4CCN(c5ccc(F)cc5)CC4)c23)C1", "inactive"],
  ["O=C(NC1CCC(Br)CC1)C1CCCC(S(=O)(=O)NC2CCCCC2)C1 (configuration not stated)", "inactive"],
  ["c1cc(OCCN2CCCCC2)ccc1CNc1ccc2nc(CCC3CCCCC3)[nH]c2c1", "active"]
]}

How did this test come out for Cc1cc(=O)oc2cc(Oc3nc(Br)cn4c(Br)cnc34)ccc12 ? inactive

Field: outcome | Entry: O=C(Nc1ccc(Oc2cccc(Cl)c2)c(Cl)c1)c1cccnn1 inactive

What did the test return for COc1ccc(C2[C@@H](c3ccccc3)C(=O)N2c2cc(OC)c(OC)c(OC)c2)cc1F (some centres not stated) ? active

---

# Tested on: SF-268 CNS
# experiment: NCI-60 one-dose screen, 48 h (100 = growth as untreated, 0 = no growth, -100 = all killed)
# assayContext: 10 µM unless noted
The panel holds about 83,000 compounds, 20% with a hit somewhere; the sample as a whole holds those more often. Active and inactive are the calls of the source. How the source made its calls: active means growth percent below 10; inactive means the rest.
parameterMeasured: growth

{"columns": ["molecule", "growth"],
 "data": [
  ["Cc1[nH]c(C(=O)Nc2ccccc2OC2CCN(CCN3CCOCC3)CC2)c(Cl)c1Cl", "81.5% (inactive)"],
  ["CC(=O)c1c(Nc2cccc(F)c2)[nH]c2c(Cl)cc(Cl)c(Cl)c2c1=O", "19.2% (inactive)"],
  ["Nc1cc(C(=O)O)cc(-n2c(O)c(C=C3N=c4ccccc4=N3)sc2=S)c1", "97.6% (inactive)"],
  ["Nc1nc(N(Cc2ccccc2)c2ccccc2)c2cn[nH]c2n1", "73.8% (inactive)"],
  ["Cn1c(C#N)ccc1-c1ccc(F)c(NC(=O)c2ccc(F)cc2)c1", "81.9% (inactive)"]
]}

What does the data say about its growth? Entry: CN1CCOCCN(C)Cc2ccc3ccc(cc3c2)CN(C)CCOCCN(C)Cc2ccc3ccc(cc3c2)C1 84.9% (inactive)

Give the measured growth of COc1ccc2[nH]cc(-c3nonc3-c3c[nH]c4ccc(Br)cc34)c2c1 . 47% (inactive)

Reported growth for CN(C)C1CN(C(=O)c2cc(-c3ccc4ncnc(N5CCc6cc(F)c(Cl)cc65)c4c3)cnc2N)C1 : what is it? 18.4% (inactive)

Recorded growth for Cn1cc(-c2nonc2-c2c[nH]c3ccccc23)c2cc(Br)ccc21 , please? 43.3% (inactive)

Look up growth for this molecule: CCCCCCCCn1ccc2cc(NC(=O)CN=[N+]=[N-])ccc21 97.9% (inactive)

Dear colleague, I am looking for the recorded growth of the following molecule: C=C1C(=O)O[C@@H]2C3C(=C(C)CC[C@@H]12)CC1O[C@]13C (stereo partly specified) 91.2% [6.75 µM] (inactive)

Form field: reported growth of CN(C)Cc1cc(C(C)(C)C)cc(Br)c1O 104% (inactive)

What value of measured growth is listed for COc1ccc2c(c1)CC[C@@H]1[C@@H]2CC[C@]2(C)c3c(cc(C#N)c4c3sc3ccccc34)C[C@@H]12 ? 100% (inactive)

I have this molecule here, CC(O)Cc1c[nH]c(=O)[nH]c1=O (stereo unspecified) , and I need its recorded growth. 90% (inactive)

What measured growth goes with Nc1c(C(=O)Nc2cccc3ncccc23)sc2nc3c(cc12)CN(Cc1ccccc1)CC3 ? 84.6% (inactive)

Look up growth for this molecule: CN(C)CCn1c(=O)c2ccccc2n2nc3ccccc3c12 98.6% (inactive)
